Target: GLP-1R (Homo sapiens)
Construct: host or cells: GLP-1R CRE-bla CHO-K1 cells
Sequence (P43220 24-463): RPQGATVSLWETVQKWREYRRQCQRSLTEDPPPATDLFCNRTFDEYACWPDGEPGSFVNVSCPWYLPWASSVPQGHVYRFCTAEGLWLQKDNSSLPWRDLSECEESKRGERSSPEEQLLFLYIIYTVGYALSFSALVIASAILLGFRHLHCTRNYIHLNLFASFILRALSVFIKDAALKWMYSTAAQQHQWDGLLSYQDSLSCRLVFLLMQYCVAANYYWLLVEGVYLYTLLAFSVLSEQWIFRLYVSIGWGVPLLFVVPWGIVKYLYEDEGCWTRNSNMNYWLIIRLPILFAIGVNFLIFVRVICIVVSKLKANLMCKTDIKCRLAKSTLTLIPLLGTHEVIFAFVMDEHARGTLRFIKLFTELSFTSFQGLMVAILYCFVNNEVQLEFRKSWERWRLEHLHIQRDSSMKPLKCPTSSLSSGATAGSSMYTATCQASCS
Sequence (P01275 100-127 partner limits assumed): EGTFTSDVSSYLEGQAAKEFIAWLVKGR
Assay: EC20 GLP-1(9-36) PAM cAMP assay: dose response of compound in the presence of fixed concentration of GLP-1(9-36)
Assay type: cell-based
Conditions: dose response of compound in presence of fixed concentration of GLP-1(9-36), GLP-1R CRE-bla CHO-K1 cells, read-out: EC20 GLP-1(9-36) PAM EC50
Description: EC20 GLP-1(9-36) PAM cAMP Assay: Dose Response of Compound in the Presence of Fixed Concentration of GLP-1 (9-36). […]
Entries and their measured EC50 follow.

The examples below pair each entry with its known result.
CCCCCCCOc1ccc(-c2cnc(-c3ccc(C[C@H](NC(=O)c4ccc(C(C)(C)C)s4)C(=O)NCC(=O)NCCC(=O)O)cc3)nc2)cc1 | < 800 nM
CCCCCCCOc1ccc(-c2cnc(-c3ccc(C[C@H](NC(=O)c4ccc(CCC)s4)C(=O)N[C@H](C)C(=O)O)cc3)nc2)cc1 | 800 to 2500 nM
CCCCCCCOc1ccc(-c2cnc(-c3ccc(C[C@H](NC(=O)c4ccc(C(C)(C)C)s4)C(=O)N[C@@H](C(=O)O)[C@@H](O)c4ccccc4)cc3)nc2)cc1 | 800 to 2500 nM
CCCCN(Cc1ccc(OC)cc1)S(=O)(=O)c1ccc(-c2cnc(-c3ccc(C[C@H](NC(=O)c4ccc(C(C)(C)C)s4)C(=O)N[C@H](C)C(=O)O)cc3)nc2)cc1 | 800 to 2500 nM
CCCCCCCOc1ccc(-c2cnc(-c3ccc(C[C@H](NC(=O)c4ccc(C(C)(C)C)s4)C(=O)NC(C(=O)O)c4ccc(OC)cc4)cc3)nc2)cc1 (some centres unmarked) | 800 to 2500 nM

Look up EC50 for this compound: CC(C)(C)CCOc1ccc(-c2cnc(-c3ccc(C[C@H](NC(=O)c4ccc(C(C)(C)C)s4)C(=O)NC(C(=O)O)C(O)c4ccccc4)cc3)nc2)cc1 (some centres unmarked)
2500 to 5000 nM

Request: CC[C@H]1CC[C@H](c2ccc(-c3cnc(-c4ccc(C[C@H](NC(=O)c5ccc(CC(C)C)s5)C(=O)N5CC(C(=O)O)C5)cc4)nc3)cc2)CC1
< 800 nM

Request: CCCCCCCOc1ccc(-c2cnc(-c3ccc(C[C@H](NC(=O)c4ccc(C(C)(C)C)cc4)C(=O)N[C@H](C(=O)O)[C@@H](C)CC)cc3)nc2)cc1
800 to 2500 nM

Request: CCCCCCCOc1ccc(-c2cnc(-c3ccc(C[C@H](NC(=O)c4ccc(C(C)(C)C)s4)C(=O)NC(C(=O)O)C(O)c4cnccn4)cc3)nc2)cc1 (some centres unmarked)
800 to 2500 nM

Request: CCCCCCCOc1ccc(-c2cnc(-c3ccc(C[C@H](NC(=O)c4ccc(C(C)(C)C)s4)C(=O)N4CCNCC4C(=O)O)cc3)nc2)cc1 (some centres unmarked)
800 to 2500 nM

Request: CCCCCCCOc1ccc2nc(-c3ccc(C[C@H](NC(=O)c4ccc(C(C)(C)C)cc4)C(=O)O)cc3)ncc2c1
5000 to 10000 nM

---

Target: GLP-1R (Homo sapiens)
Construct: host or cells: GLP-1R CRE-bla CHO-K1 cells
Assay: EC20 GLP-1(9-36) PAM cAMP assay: dose response of compound in the presence of fixed concentration of GLP-1(9-36)
Format: cell-based
Settings: GLP-1R CRE-bla CHO-K1 cells, compound dose response with fixed concentration of GLP-1(9-36), read-out: EC20 GLP-1(9-36) PAM EC50
From the text: EC20 GLP-1(9-36) PAM cAMP Assay: Dose Response of Compound in the Presence of Fixed Concentration of GLP-1 (9-36). […]
Entries and their measured EC50 follow.

Look up EC50 for this compound: C[C@@H](NC(=O)[C@H](Cc1ccc(-c2ncc(-c3ccc(-c4ccc(C(C)(C)C)cc4)cc3)cn2)cc1)NC(=O)c1ccc(C(C)(C)C)s1)C(=O)O
800 to 2500 nM

Request: Cc1ccc(-c2ccc(-c3cnc(-c4ccc(C[C@H](NC(=O)c5ccc(C(C)(C)C)s5)C(=O)N5CC(C(=O)O)C5)cc4)nc3)c(F)c2)cc1
< 800 nM

Request: C[C@@H](NC(=O)[C@H](Cc1ccc(-c2ncc(-c3ccc(-c4ccc(C(F)(F)F)cc4)cc3)cn2)cc1)NC(=O)c1ccc(C(C)(C)C)s1)C(=O)O
< 800 nM

Request: CC[C@H]1CC[C@H](c2ccc(-c3cnc(-c4ccc(C[C@H](NC(=O)c5ccc(S(C)(=O)=O)s5)C(=O)N5CC(C(=O)O)C5)cc4)nc3)cc2)CC1
< 800 nM

Request: CC[C@H]1CC[C@H](c2ccc(-c3cnc(-c4ccc(C[C@H](NC(=O)c5ccc(C)cc5)C(=O)O)cc4)nc3)cc2)CC1
800 to 2500 nM

Request: CCC[C@H]1CC[C@H](C2CCN(c3cnc(-c4ccc(C[C@H](NC(=O)c5ccc(C)cc5)C(=O)N5CC(C(=O)O)C5)cc4)nc3)CC2)CC1
800 to 2500 nM

Request: CC(C)(C)c1ccc(C2CCN(c3cnc(-c4ccc(C[C@H](NC(=O)c5ccc(C(C)(C)C)s5)C(=O)N5CC(C(=O)O)C5)cc4)nc3)CC2)cc1
< 800 nM

Request: CC(C)(C)c1ccc(C(=O)N[C@@H](Cc2ccc(-c3ncc(-c4ccc(-c5cccc(C(F)(F)F)c5)cc4)cn3)cc2)C(=O)O)s1
< 800 nM

Request: CC(C)(C)c1ccc(C(=O)N[C@@H](Cc2ccc(-c3ncc(-c4ccc(C5CCCCC5)cc4)cn3)cc2)C(=O)O)s1
800 to 2500 nM

Request: CCC[C@H]1CC[C@H](C2CCN(c3cnc(-c4ccc(C[C@H](NC(=O)c5ccc(C(C)(C)C)s5)C(=O)NC(CCN)C(=O)O)cc4)nc3)CC2)CC1 (some centres unmarked)
< 800 nM
